Test: Inhibition of mouse Sky kinase assessed as inhibition of src substrate phosphorylation by ELISA
experimental_readout: pIC50
pIC50 here: minus log base 10 of the concentration, concentration in moles per litre.

// returns reported pIC50 for input N#Cc1ccc2cc(C(=O)N3C[C@]4(CCN(C5CCNC5)C4)c4ccccc43)[nH]c2c1 (stereo partly drawn)
5.95

I would be grateful if you could share the reported pIC50 for Cc1ccc(N2CC[C@@]3(C2)CN(C(=O)c2cc4cc(F)ccc4[nH]2)c2ccccc23)cn1 .
4.42

So what's the measured pIC50 for this one? O=C(c1cc2cc(Cl)ccc2[nH]1)N1C[C@]2(CCN(C3CCCNC3)C2)c2ccccc21 (stereo partly drawn)
5.98
